Attribution: patent US20240182536A1

- TARGET: T1, IL-18 binding protein (IL-18BP) (UniProt O95998 31-194); further: unit not given here
- T1 sequence (looked up): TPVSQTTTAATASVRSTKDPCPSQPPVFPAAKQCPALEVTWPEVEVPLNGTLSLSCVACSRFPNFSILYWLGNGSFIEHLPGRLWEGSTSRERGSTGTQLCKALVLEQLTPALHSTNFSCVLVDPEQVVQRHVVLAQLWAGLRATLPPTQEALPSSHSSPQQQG
- METHOD SUMMARY: cell-based or functional assay
Measured Activity, +100 nM BP, DF-25000004 accompanies every entry in the list below.
A bare number is all that is needed in reply.

| BINDER | VALUE REPORTED |
| --- | --- |
| IL-18 variant G3P, E6K, D54Y, S55P, Q56H, T63S, N91S, R104Q (ligand) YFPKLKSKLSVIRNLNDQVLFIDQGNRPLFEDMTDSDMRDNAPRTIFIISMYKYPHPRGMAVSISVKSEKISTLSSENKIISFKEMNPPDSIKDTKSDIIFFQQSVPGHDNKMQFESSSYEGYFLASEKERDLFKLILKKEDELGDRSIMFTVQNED | 0.54 |

QUERY: # input binder: IL-18 variant G3P, E6S, K53R, D54Y, S55P, T63I, N91K (ligand) YFPKLSSKLSVIRNLNDQVLFIDQGNRPLFEDMTDSDMRDNAPRTIFIISMYRYPQPRGMAVIISVKSEKISTLSSENKIISFKEMNPPDKIKDTKSDIIFFQRSVPGHDNKMQFESSSYEGYFLASEKERDLFKLILKKEDELGDRSIMFTVQNED ; wanted: its Activity, +100 nM BP, DF-25000004
RESULT: 0.07

QUERY: # input binder: IL-18 variant G3P, E6V, K53A, D54W, S55P, T63S, N91L, R104K (ligand) YFPKLVSKLSVIRNLNDQVLFIDQGNRPLFEDMTDSDMRDNAPRTIFIISMYAWPQPRGMAVSISVKSEKISTLSSENKIISFKEMNPPDLIKDTKSDIIFFQKSVPGHDNKMQFESSSYEGYFLASEKERDLFKLILKKEDELGDRSIMFTVQNED ; wanted: its Activity, +100 nM BP, DF-25000004
RESULT: 0.18
